- TARGET_OR_SYSTEM: T1, huZIP12-ECD-GST (human, UniProt Q504Y0 24-202)
- T1 construct: also called hZIP12-ECD-GST; human ZIP12-ECD-GST; not shown: glutathione S-transferase (GST) tag
- T1 sequence (Q504Y0 24-202): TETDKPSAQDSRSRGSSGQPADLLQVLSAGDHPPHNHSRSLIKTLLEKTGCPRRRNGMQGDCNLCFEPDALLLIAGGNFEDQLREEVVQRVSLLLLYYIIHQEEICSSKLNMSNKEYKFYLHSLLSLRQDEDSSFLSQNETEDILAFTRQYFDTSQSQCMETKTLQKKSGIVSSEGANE
- ASSAY_EXPLANATION: SPR single cycle kinetics (Biacore): mAb captured on protein A, huZIP12-ECD-GST injected at 3.12-800 nM
REPORTED_ENDPOINT: koff

binder="H2_T56H_L2 (antibody, V domains shown, Fc null human IgG1 / human kappa) VH: QVQLVESGGGVVQPGRSLRLSCAASGFTFSDYGMHWVRQAPGKGLEWVAYISSGGHTIYYADTVKGRFTISRDNSKNTLYLQMNSLRAEDTAVYYCARWTNLYAMDYWGQGTTVTVSS VL: DIVLTQSPDSLAVSLGERATINCRASKSVSTSGYSYMHWYQQKPGQPPKFLIYLASNKESGVPDRFSGSGSGTDFTLTISSLQAEDVAVYYCQHSREVPYTFGGGTKVEIKR" reported_endpoint=koff result="3.74e-05 s⁻¹"
binder="51B12_VH_L2 (antibody, V domains shown, Fc null human IgG1 / human kappa) VH: QVQLVESGGGVVQPGRSLRLSCAASGFTFSDYGMHWVRQAPGKGLEWVAYISSGGTTIYYADTVKGRFTISRDNSKNTLYLQMNSLRAEDTAVYYCARWTNLYAMDYWGQGTTVTVSS VL: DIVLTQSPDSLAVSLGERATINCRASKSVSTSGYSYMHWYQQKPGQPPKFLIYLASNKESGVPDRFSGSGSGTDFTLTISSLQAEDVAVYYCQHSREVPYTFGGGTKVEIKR" reported_endpoint=koff result="2.86e-05 s⁻¹"
binder="H2_G66Q_L2 (antibody, V domains shown, Fc null human IgG1 / human kappa) VH: QVQLVESGGGVVQPGRSLRLSCAASGFTFSDYGMHWVRQAPGKGLEWVAYISSGGTTIYYADTVKQRFTISRDNSKNTLYLQMNSLRAEDTAVYYCARWTNLYAMDYWGQGTTVTVSS VL: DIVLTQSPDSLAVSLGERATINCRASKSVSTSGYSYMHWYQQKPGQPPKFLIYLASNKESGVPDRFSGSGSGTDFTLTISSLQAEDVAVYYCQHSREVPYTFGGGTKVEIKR" reported_endpoint=koff result="3.42e-05 s⁻¹"
